Just for reference, patent US4126616A is where these values come from.

Overview of reported responders at 26 µmol/kg across a group of compounds:
System: caudate lesioned mouse
assayName: caudate lesioned mouse test (anti-parkinson activity)
Assay type: in vivo
condition: Mus musculus; dose 0.026 m. mole/kg; 4 h post-drug; read-out: No. Mice Affected/No. Mice Tested, 4 h (converted)
Where a name gives a salt, the structure may show the parent alone.
In your response, put the unit directly after the numeric value.

compound: CCCN1CCc2cccc3c2C1Cc1ccc(OC(=O)c2cc(OC)c(OC)c(OC)c2)c(OC(=O)c2cc(OC)c(OC)c(OC)c2)c1-3 (stereo not drawn) [Ex. 1L, hydrochloride]
responders at 26 µmol/kg: 100%

Prompt: Quick check: responders at 26 µmol/kg of CCCN1CCc2cccc3c2C1Cc1ccc(OC(=O)c2ccccc2C)c(OC(=O)c2ccccc2C)c1-3 (stereo not drawn) ?
Response: 50%

Prompt: Quick check: responders at 26 µmol/kg of CCCC(=O)Oc1ccc2c(c1OC(=O)CCC)-c1cccc3c1C(C2)N(CCC)CC3 (stereo not drawn) [Ex. 1A, N-Propylnorapomorphine dibutanoate] ?
Response: 0%

Prompt: Quick check: responders at 26 µmol/kg of CCCN1CCc2cccc3c2C1Cc1ccc(OC(=O)c2cc(OC)cc(OC)c2)c(OC(=O)c2cc(OC)cc(OC)c2)c1-3 (stereo not drawn) [Ex. 1K, hydrochloride] ?
Response: 50%

Prompt: Quick check: responders at 26 µmol/kg of CCCCC(=O)Oc1ccc2c(c1OC(=O)CCCC)-c1cccc3c1C(C2)N(CCC)CC3 (stereo not drawn) [Ex. 2A, hydrochloride] ?
Response: 0%

Prompt: Quick check: responders at 26 µmol/kg of CCCN1CCc2cccc3c2C1Cc1ccc(OC(=O)C(C)(C)C)c(OC(=O)C(C)(C)C)c1-3 (stereo not drawn) [Ex. 1C, N-Propylnorapomorphine dipivaloate] ?
Response: 100%
